Origin of values: PubChem BioAssay (EPA / NIEHS)

experiment: ATG_CRE_CIS: Attagene CIS-FACTORIAL HepG2 Assay for human cAMP Responsive Element (CRE) binding protein 3 (AID 2282926); conditions: HepG2 CRE cis-reporter, Attagene multiplexed mRNA; actives raise or lower the signal
Activity calls are given as the source filed them. Rule for the calls: active = hit-call score of the fitted dose curve at least 0.9, where 1 is the maximum; inactive = score below 0.9.
outcomeMeasure: AC50

>>> result("CCOC(=O)C(O)(c1ccc(Cl)cc1)c1ccc(Cl)cc1")
"inactive"
>>> result("Nn1cnnc1")
"inactive"
>>> result("CCCCCCCCCc1ccc(O)cc1")
"inactive"
>>> result("O=S(=O)(O)C(F)(F)C(F)(F)C(F)(F)C(F)(F)C(F)(F)C(F)(F)F")
"inactive"
>>> result("Clc1ccc(Cl)cc1")
"inactive"

I have 6 compounds here; please give me AC50 for each one.
1. CO/C=C(/C(=O)OC)c1ccccc1COc1cccc(C(F)(F)F)n1
2. Cc1ccccc1CO[C@@H]1C[C@@]2(C(C)C)CC[C@]1(C)O2
3. Cc1ccccc1O
4. Cc1ccccc1[N+](=O)[O-]
5. O=C(N[C@H]1CN2CCC1CC2)c1cc2ccoc2cn1
6. Sc1ccccc1

Result ::
1: inactive; 2: inactive; 3: inactive; 4: inactive; 5: inactive; 6: inactive

Give AC50 for all compounds that follow.
1. Nc1ccc(-c2ccc(N)cc2)cc1
2. CCOCCOC(C)=O
3. Oc1ccc(Cl)cc1Cl
4. Cc1cc2c3c(c1)C(c1ccccc1)=N[C@@H](NC(=O)c1ccncc1)C(=O)N3CC2
5. CC(c1ccc(O)cc1)(c1ccc(O)cc1)c1ccc(O)cc1
6. ClC1=C(Cl)[C@]2(Cl)[C@@H]3[C@@H]4C[C@@H]([C@H]5O[C@@H]45)[C@@H]3[C@@]1(Cl)C2(Cl)Cl
7. Clc1ccc(C(c2ccccc2Cl)C(Cl)(Cl)Cl)cc1 (stereo not given)

Result ::
["inactive", "inactive", "inactive", "100 µM (active)", "8.32 µM (active)", "inactive", "inactive"]

Quick batch: AC50 for everything below.
1. C=CC(N)=O
2. Cc1cc(-c2ccc(N)c(C)c2)ccc1N
3. CC(C)C(=O)OCC(C)(C)C(OC(=O)C(C)C)C(C)C (stereo not given)
4. CN(C)c1nc(=O)n(C2CCCCC2)c(=O)n1C
5. COS(=O)(=O)OC
6. O=C(O)C(F)(F)C(F)(F)C(F)(F)C(F)(F)C(F)(F)C(F)(F)C(F)(F)C(F)(F)F

Result ::
1. inactive
2. inactive
3. inactive
4. inactive
5. inactive
6. inactive

Give AC50 for all compounds that follow.
1. Cc1cccc([N+](=O)[O-])c1
2. CC#Cc1cc(C)nc(Nc2ccccc2)n1
3. Cc1ccc(O)c(C)c1

Result ::
inactive
inactive
inactive

I'm hoping you can list AC50 for every compound here, please.
1. OCC(O)CO
2. c1cc2ccc3cccc4ccc(c1)c2c34
3. CCSC(=O)N(CC)C1CCCCC1
4. CCNc1nc(NC(C)C)nc(SC)n1

Result ::
inactive
inactive
inactive
inactive

Record AC50 for all entries; do not skip any.
1. COc1ccc(O)c(C(C)(C)C)c1
2. O=C(O)C(F)(F)C(F)(F)C(F)(F)C(F)(F)C(F)(F)F
3. O=C(NC(=O)c1cc(F)c(F)cc1Cl)Nc1cc(F)ccc1N1CCC(C(=O)O)CC1
4. Clc1ccc(C(Cl)(Cl)Cl)cc1

Result ::
1. 100 µM (active)
2. inactive
3. inactive
4. inactive

====

Read-out: flavin-containing dimethylaniline monooxygenases 3 (FMO3), FMO3 (gene 2328)
Experiment: LTEA_HepaRG_FMO3: Life Technologies and Expression Analysis (LTEA) Assay for flavin-containing dimethylaniline monooxygenases 3 (FMO3) using HepaRG (AID 2283453)
Conditions: mRNA level, 48 h; actives raise or lower the signal
Experimental: LTEA_HepaRG is a cell based, multiplexed-readout assay that uses HepaRG, a human liver cell line, with measurements taken at 48 hours after chemical dosing on a 96-well plate.LTEA_HepaRG_FMO3 is one of 102 assay component(s) measured in the LTEA HepaRG cell culture assay. It is a marker of NR mediated metabolism.Data from the assay component LTEA_HepaRG_FMO3 was analyzed into 1 endpoint. […]
Active and inactive are the calls of the source. The calls were made as follows: active = hit-call score of the fitted dose curve at least 0.9, where 1 is the maximum; inactive = score below 0.9.
API: response.call in class 1 (active), class 0 (inactive)

Query :: Returns: the outcome recorded for Cc1cc2c3c(c1)C(c1ccccc1)=N[C@@H](NC(=O)c1ccncc1)C(=O)N3CC2 in this assay.
Result :: class 1

Query :: Item: C[C@]12CCC(=O)C=C1CC[C@@H]1[C@@H]2CC[C@]2(C)C(=O)CC[C@@H]12
Result :: class 0

Query :: Moving on to Clc1ccc(Cl)cc1
Result :: class 0

Query :: Would you kindly repeat that for CCC(C)(CC)c1cc(NC(=O)c2c(OC)cccc2OC)on1 ?
Result :: class 0

Query :: Same thing, different compound: O=C(NC(=O)c1c(F)cccc1F)Nc1cc(Cl)c(OC(F)(F)C(F)F)c(Cl)c1
Result :: class 1

Query :: What would you report for CC1=C2C[C@H]3[C@@H](CC=C4C[C@@H](O)CC[C@@]43C)[C@@H]2CC[C@]12O[C@@H]1C[C@H](C)CN[C@H]1[C@H]2C ?
Result :: class 0

Query :: CCCN(CCC)N=O ?
Result :: class 0

Query :: Consider next the compound CCCCCCCCOC(=O)c1ccccc1C(=O)OCCCCCCCC in the same way.
Result :: class 0

Query :: # repeat for O=NN(c1ccccc1)c1ccccc1
Result :: class 0

Query :: What do you have for ClC1=C(Cl)[C@]2(Cl)[C@@H]3[C@@H](Cl)[C@H]4O[C@H]4[C@@H]3C1(Cl)C2(Cl)Cl ?
Result :: class 0

Query :: Then what about the compound CCOC(=O)C(O)(c1ccc(Cl)cc1)c1ccc(Cl)cc1 ?
Result :: class 0

Query :: Input COc1ccc(O)c(C(C)(C)C)c1
Result :: class 0

Query :: Then this compound: CC(C)C(=O)OCC(C)(C)C(OC(=O)C(C)C)C(C)C (stereo not drawn)
Result :: class 0

Query :: Moving on to COS(=O)(=O)OC
Result :: class 0

Query :: Let us now turn to Cc1ccccc1CO[C@@H]1C[C@@]2(C(C)C)CC[C@]1(C)O2
Result :: class 0

Query :: Check CCCCCCCCCc1ccc(O)cc1 too.
Result :: class 0

Query :: Then Oc1ccc(C(c2ccc(O)cc2)(C(F)(F)F)C(F)(F)F)cc1 ?
Result :: class 1

Query :: Again, but for CCC(C)(c1ccc(O)cc1)c1ccc(O)cc1
Result :: class 0

====

read-out: Cytochrome P450 3A7 (Homo sapiens); experiment: LTEA_HepaRG_CYP3A7: Life Technologies and Expression Analysis (LTEA) Assay for CYP3A7 using HepaRG (AID 2283492); details: mRNA level, 48 h; actives raise or lower the signal
The source made the active and inactive calls. The calls were made as follows: active = hit-call score of the fitted dose curve at least 0.9, where 1 is the maximum; inactive = score below 0.9.
Thanks in advance; please answer with one of these: True (active), False (inactive)

Study these solved cases before continuing.
>>> grouplabel("CCOC(=O)C(O)(c1ccc(Cl)cc1)c1ccc(Cl)cc1")
"True"
>>> grouplabel("CCC(C)(CC)c1cc(NC(=O)c2c(OC)cccc2OC)on1")
"True"
>>> grouplabel("O=C(O)C(F)(F)C(F)(F)C(F)(F)C(F)(F)C(F)(F)C(F)(F)C(F)(F)C(F)(F)C(F)(F)F")
"True"
>>> grouplabel("CC#Cc1cc(C)nc(Nc2ccccc2)n1")
"True"
>>> grouplabel("CCNc1nc(NC(C)C)nc(SC)n1")
"False"
>>> grouplabel("CCOP(=S)(OCC)SCSC(C)(C)C")
"True"
>>> grouplabel("CN(C)CCO")
"False"
>>> grouplabel("Cc1cccc([N+](=O)[O-])c1")
"False"
>>> grouplabel("CN(C)c1nc(=O)n(C2CCCCC2)c(=O)n1C")
"True"
>>> grouplabel("CCCCCCCCOC(=O)c1ccccc1C(=O)OCCCCCCCC")
"False"

Query :: Status in this test for Oc1ccc(C(c2ccc(O)cc2)(C(F)(F)F)C(F)(F)F)cc1 ?
Result :: False

Query :: Could you do the same for Cc1ccccc1O , please?
Result :: False

Query :: Item: CC(C)(c1ccccc1)c1ccc(O)cc1
Result :: False

====

read-out: Ezrin (EZR), EZR (gene 7430); test: LTEA_HepaRG_EZR: Life Technologies and Expression Analysis (LTEA) Assay for Ezrin (EZR) using HepaRG (AID 2283491); conditions: mRNA level, 48 h; actives raise or lower the signal
Calls of active or inactive are those of the source. Rule for the calls: active = hit-call score of the fitted dose curve at least 0.9, where 1 is the maximum; inactive = score below 0.9.
Choose the fitting class; nothing outside active, inactive is accepted.

These solved cases illustrate the format of a correct answer.
>>> grouplabel("C[C@]12CCC(=O)C=C1CC[C@@H]1[C@@H]2CC[C@]2(C)C(=O)CC[C@@H]12")
"inactive"
>>> grouplabel("C=CC(=O)NCNC(=O)C=C")
"inactive"
>>> grouplabel("CCSC(=O)N(CC)C1CCCCC1")
"inactive"
>>> grouplabel("O=C(O)C(F)(F)C(F)(F)C(F)(F)C(F)(F)C(F)(F)C(F)(F)C(F)(F)C(F)(F)C(F)(F)F")
"active"
>>> grouplabel("c1ccc(-c2ccccc2)cc1")
"inactive"

Now, please, on to the next compound.
Query :: Lab log entry: Oc1ccc(Cl)cc1Cl — outcome as called in the assay?
Result :: inactive
